- TARGET OR TEST SYSTEM: Adenosine receptor A2a (Mus musculus)
- Sequence (Q60613 whole entry): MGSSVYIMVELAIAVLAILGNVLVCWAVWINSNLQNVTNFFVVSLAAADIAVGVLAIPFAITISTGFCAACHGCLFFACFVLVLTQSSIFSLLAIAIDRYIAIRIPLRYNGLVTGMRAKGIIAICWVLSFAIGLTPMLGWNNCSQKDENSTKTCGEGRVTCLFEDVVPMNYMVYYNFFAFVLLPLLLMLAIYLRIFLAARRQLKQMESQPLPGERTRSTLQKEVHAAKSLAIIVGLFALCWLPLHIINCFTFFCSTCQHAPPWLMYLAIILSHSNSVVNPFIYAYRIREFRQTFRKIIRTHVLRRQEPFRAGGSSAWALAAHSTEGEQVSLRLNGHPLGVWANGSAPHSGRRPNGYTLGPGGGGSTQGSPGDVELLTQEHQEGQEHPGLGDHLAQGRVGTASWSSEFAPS
- PROCEDURE SUMMARY: FLIPR and cAMP Inhibition Assay: hADORA1/CHO (hA1 expressing) cells (Genscript) were plated at 1×10^4 cells/well into 384-well polystyrene plates one day before starting the experiment. On the day of experiment, the supernatant was discard and replaced with 40 µL of dye (FLIPR calcium 5 Assay Kit) per well and the plates were incubated for 60 mins at 37° C. plus 5% CO2. Then testing compounds were added at different concentrations for FLIPR™ inhibition assay. After a 400 s incubation with compound, […] was added into the cells, and the signal was captured by FLIPR.hA2a/CHO, hA2b/CHO and mA2a/CHO (Genscript) were plated at 5×10^3 cells/well into 384-well polystyrene plates at the day of experiment. Compounds were pre-incubated with cells for 30 min at 37° C., 5% CO2. Then […] was added to the cells and incubated for 30 min at 37° C., 5% CO2. Detection reagent (CISBIO) was added and the plates were incubated for 60 min at room temperature. The signal was captured by Envision.
I'd be grateful if you could share measured pIC50 for these entries.
Answers are plain numbers, as −log10 of the molar value.

Report its pIC50 with Adenosine receptor A2a (Mus musculus) as the test system: Nc1nc(-n2ccnn2)c(-c2ccc3nccn3c2)c2nc(Cc3ncccc3F)nn12
6.77

Here is another molecule to look at.
Report its pIC50 with Adenosine receptor A2a (Mus musculus) as the test system: Cc1cnc2ccc(-c3c(N4CCOCC4)nc(N)n4nc(Cc5c(F)cccc5F)nc34)cn12
8.54

----------
- TARGET OR TEST SYSTEM: Adenosine receptor A1 (Homo sapiens)
- Sequence (P30542 whole entry): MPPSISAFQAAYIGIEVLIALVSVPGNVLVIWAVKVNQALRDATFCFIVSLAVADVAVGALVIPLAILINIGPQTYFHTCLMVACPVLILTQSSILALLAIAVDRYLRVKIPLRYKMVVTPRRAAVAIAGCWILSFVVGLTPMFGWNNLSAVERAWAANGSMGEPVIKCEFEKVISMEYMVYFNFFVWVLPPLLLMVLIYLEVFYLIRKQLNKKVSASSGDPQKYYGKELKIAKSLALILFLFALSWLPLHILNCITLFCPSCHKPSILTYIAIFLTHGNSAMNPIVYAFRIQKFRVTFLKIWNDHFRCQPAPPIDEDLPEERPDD
- PROCEDURE SUMMARY: FLIPR and cAMP Inhibition Assay: hADORA1/CHO (hA1 expressing) cells (Genscript) were plated at 1×10^4 cells/well into 384-well polystyrene plates one day before starting the experiment. On the day of experiment, the supernatant was discard and replaced with 40 µL of dye (FLIPR calcium 5 Assay Kit) per well and the plates were incubated for 60 mins at 37° C. plus 5% CO2. Then testing compounds were added at different concentrations for FLIPR™ inhibition assay. After a 400 s incubation with compound, […] was added into the cells, and the signal was captured by FLIPR.hA2a/CHO, hA2b/CHO and mA2a/CHO (Genscript) were plated at 5×10^3 cells/well into 384-well polystyrene plates at the day of experiment. Compounds were pre-incubated with cells for 30 min at 37° C., 5% CO2. Then […] was added to the cells and incubated for 30 min at 37° C., 5% CO2. Detection reagent (CISBIO) was added and the plates were incubated for 60 min at room temperature. The signal was captured by Envision.
READOUT TYPE: pIC50
Give bare numbers, as −log10 of the molar value.

Answer with the recorded pIC50 for the compound listed here: Nc1nc(-n2ccnn2)c(-c2ccc3nccn3c2)c2nc(Cc3ncccc3F)nn12
6.11

----------
- TARGET OR TEST SYSTEM: Adenosine receptor A2a (Homo sapiens)
- Sequence (P29274 whole entry): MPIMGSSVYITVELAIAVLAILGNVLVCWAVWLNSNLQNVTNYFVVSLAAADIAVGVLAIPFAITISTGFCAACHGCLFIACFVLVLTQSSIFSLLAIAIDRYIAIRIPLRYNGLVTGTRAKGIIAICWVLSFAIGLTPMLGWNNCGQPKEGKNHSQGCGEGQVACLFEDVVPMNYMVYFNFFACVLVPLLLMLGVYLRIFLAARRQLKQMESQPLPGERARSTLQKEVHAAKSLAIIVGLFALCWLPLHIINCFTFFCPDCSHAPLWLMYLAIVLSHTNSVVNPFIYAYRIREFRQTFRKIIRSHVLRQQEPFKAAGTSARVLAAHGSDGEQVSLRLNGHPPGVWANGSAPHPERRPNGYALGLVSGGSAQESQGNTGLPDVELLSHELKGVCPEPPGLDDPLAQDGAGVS
READOUT TYPE: pIC50
Answers are plain numbers, as −log10 of the molar value.

Answer with the recorded pIC50 for the compound listed here: Nc1nc(-n2ccnn2)c(-c2ccc3nccn3c2)c2nc(Cc3ncccc3F)nn12
6.99

Here is another compound to look at.
Answer with the recorded pIC50 for the compound listed here: Cc1cnc2ccc(-c3c(N4CCOCC4)nc(N)n4nc(Cc5c(F)cccc5F)nc34)cn12
9.70
